tested on: HLA-A*01; assay: MHC binding assay (UV-ligand exchange, β2m ELISA); parameters: species or system human
PROPERTY: Peptide exchange (peptide exchange yield, MHC class I binding score)

SUBSTANCE: 187 (VADLHLYLY; listed as Homo sapiens) [compound 187]
REPORTED: “+++” (>50 = +++)
--
SUBSTANCE: 164 (NTDNNLAVY; listed as Homo sapiens) [compound 164]
REPORTED: “++++” (>75% = ++++)
--
SUBSTANCE: 436 (QTETGTPYMLY; listed as Homo sapiens) [compound 436]
REPORTED: “++++” (>75% = ++++)
--
SUBSTANCE: 159 (LSDTSVIQFY; listed as Homo sapiens) [compound 159]
REPORTED: “++++” (>75% = ++++)
--
SUBSTANCE: 197 (YADTVRPEFY; listed as Homo sapiens) [compound 197]
REPORTED: “+++” (>50 = +++)
--
SUBSTANCE: 442 (TSDFSRFTNY; listed as Homo sapiens) [compound 442]
REPORTED: “++++” (>75% = ++++)
--
SUBSTANCE: 144 (FLDSQNLSAY; listed as Homo sapiens) [compound 144]
REPORTED: “+++” (>50 = +++)
--
SUBSTANCE: 443 (TTDFPSESSFEY; listed as Homo sapiens) [compound 443]
REPORTED: “++++” (>75% = ++++)
--
SUBSTANCE: 421 (LTELLERAAFY; listed as Homo sapiens) [compound 421]
REPORTED: “++++” (>75% = ++++)
--
SUBSTANCE: 181 (TADGKTYYY; listed as Homo sapiens) [compound 181]
REPORTED: “+++” (>50 = +++)
--
SUBSTANCE: 198 (YLDPVQRDLY; listed as Homo sapiens) [compound 198]
REPORTED: “++++” (>75% = ++++)
--
SUBSTANCE: 193 (VTEFSLNTY; listed as Homo sapiens) [compound 193]
REPORTED: “++++” (>75% = ++++)
--
SUBSTANCE: 153 (KLDRSVFTAY; listed as Homo sapiens) [compound 153]
REPORTED: “+++” (>50 = +++)
--
SUBSTANCE: 431 (NTSDMMGRMSY; listed as Homo sapiens) [compound 431]
REPORTED: “++++” (>75% = ++++)
--
SUBSTANCE: 423 (NLDAVHDITVAY; listed as Homo sapiens) [compound 423]
REPORTED: “++++” (>75% = ++++)
--
SUBSTANCE: 430 (NTEGLHHLY; listed as Homo sapiens) [compound 430]
REPORTED: “++++” (>75% = ++++)
--
SUBSTANCE: 185 (TSDSNLNKY; listed as Homo sapiens) [compound 185]
REPORTED: “++++” (>75% = ++++)
--
SUBSTANCE: 416 (LLDTAQKNLY; listed as Homo sapiens) [compound 416]
REPORTED: “++++” (>75% = ++++)
--
SUBSTANCE: 145 (FVDKPVAY; listed as Homo sapiens) [compound 145]
REPORTED: “+++” (>50 = +++)
--
SUBSTANCE: 149 (GTEFTTVLY; listed as Homo sapiens) [compound 149]
REPORTED: “++++” (>75% = ++++)
--
SUBSTANCE: 406 (ETEQTKFWDY; listed as Homo sapiens) [compound 406]
REPORTED: “++++” (>75% = ++++)
--
SUBSTANCE: 142 (EVAEPSVLFDLY; listed as Homo sapiens) [compound 142]
REPORTED: “+++” (>50 = +++)
--
SUBSTANCE: 447 (VVDEDHELIY; listed as Homo sapiens) [compound 447]
REPORTED: “+++” (>50 = +++)
--
SUBSTANCE: 434 (QTDCAPNNGY; listed as Homo sapiens) [compound 434]
REPORTED: “++++” (>75% = ++++)
--
SUBSTANCE: 435 (QTDDTWRTEY; listed as Homo sapiens) [compound 435]
REPORTED: “++++” (>75% = ++++)
--
SUBSTANCE: 432 (NVDPVQHTY; listed as Homo sapiens) [compound 432]
REPORTED: “+++” (>50 = +++)

Sourced from patent US11292821B2
